Each item that follows carries a reported VEGF-E-mediated Survival % Inhibition (Average).
# measured target: KDR endogenously expressed on human umbilical vein endothelial cells (HUVEC) (human, UniProt P35968 20-1356); further: test concentration or dose not given here
# Sequence (P35968 20-1356): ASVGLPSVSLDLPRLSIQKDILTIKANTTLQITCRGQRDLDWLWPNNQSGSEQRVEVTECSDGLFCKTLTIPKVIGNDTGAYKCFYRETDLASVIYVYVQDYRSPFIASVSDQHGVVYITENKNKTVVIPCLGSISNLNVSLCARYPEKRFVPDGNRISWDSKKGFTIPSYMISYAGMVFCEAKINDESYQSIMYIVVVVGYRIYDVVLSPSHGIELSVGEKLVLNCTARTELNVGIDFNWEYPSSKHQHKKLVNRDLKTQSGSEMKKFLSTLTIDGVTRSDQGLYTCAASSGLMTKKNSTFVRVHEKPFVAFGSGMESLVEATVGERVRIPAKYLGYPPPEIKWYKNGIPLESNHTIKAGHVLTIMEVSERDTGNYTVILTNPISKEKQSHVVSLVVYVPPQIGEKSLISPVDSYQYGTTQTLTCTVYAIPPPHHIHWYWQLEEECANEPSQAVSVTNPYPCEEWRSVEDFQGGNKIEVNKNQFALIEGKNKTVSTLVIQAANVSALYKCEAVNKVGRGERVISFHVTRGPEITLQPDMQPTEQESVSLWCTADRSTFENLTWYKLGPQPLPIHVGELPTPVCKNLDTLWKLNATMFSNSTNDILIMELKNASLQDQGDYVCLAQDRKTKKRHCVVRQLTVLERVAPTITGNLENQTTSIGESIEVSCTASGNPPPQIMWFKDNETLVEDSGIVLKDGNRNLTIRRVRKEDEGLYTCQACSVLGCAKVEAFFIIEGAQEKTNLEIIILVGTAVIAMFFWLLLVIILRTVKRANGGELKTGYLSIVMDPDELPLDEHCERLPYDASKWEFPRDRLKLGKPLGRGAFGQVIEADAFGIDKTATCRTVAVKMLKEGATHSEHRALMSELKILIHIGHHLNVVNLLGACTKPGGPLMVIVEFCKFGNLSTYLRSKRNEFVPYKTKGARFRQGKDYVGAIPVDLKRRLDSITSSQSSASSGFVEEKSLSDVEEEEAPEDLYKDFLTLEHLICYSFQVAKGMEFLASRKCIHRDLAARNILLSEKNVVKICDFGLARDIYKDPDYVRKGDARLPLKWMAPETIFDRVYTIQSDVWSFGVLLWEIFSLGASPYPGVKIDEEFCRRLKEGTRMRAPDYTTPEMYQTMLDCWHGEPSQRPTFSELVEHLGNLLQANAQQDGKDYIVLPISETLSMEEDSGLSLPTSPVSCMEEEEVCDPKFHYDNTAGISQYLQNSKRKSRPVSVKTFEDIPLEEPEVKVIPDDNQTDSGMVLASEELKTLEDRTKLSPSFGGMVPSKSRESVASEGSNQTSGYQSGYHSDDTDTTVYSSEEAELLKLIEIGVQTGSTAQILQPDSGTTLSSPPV
# measurement notes: cell-based or functional assay
Express your answer in %, writing the number without its unit.

Some solved entries appear below for comparison.
1) 33E1 (antibody, V domains shown, Fully human mAb from XenoMouse hybridoma, tested as hybridoma supernatant) VH: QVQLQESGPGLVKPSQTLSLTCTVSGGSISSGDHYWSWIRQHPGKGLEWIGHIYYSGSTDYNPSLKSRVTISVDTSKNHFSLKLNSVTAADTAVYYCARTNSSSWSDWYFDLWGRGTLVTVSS VL: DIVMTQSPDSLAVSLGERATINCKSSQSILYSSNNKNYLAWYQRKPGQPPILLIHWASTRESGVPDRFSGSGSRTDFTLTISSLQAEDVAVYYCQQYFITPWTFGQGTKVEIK | 60
2) 33B1 (antibody, V domains shown, Fully human mAb from XenoMouse hybridoma, tested as hybridoma supernatant) VH: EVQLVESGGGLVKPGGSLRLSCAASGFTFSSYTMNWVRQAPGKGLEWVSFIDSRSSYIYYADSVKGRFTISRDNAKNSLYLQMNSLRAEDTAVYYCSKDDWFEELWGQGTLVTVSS VL: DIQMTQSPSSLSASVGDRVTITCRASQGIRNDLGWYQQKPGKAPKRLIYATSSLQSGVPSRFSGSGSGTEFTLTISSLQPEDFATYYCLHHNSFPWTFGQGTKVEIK | 67
3) 21H6 (antibody, V domains shown, Fully human mAb from XenoMouse hybridoma, tested as hybridoma supernatant) VH: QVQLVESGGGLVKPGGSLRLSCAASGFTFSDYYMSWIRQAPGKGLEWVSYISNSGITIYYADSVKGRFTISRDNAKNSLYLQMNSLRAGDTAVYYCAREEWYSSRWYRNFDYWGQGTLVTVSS VL: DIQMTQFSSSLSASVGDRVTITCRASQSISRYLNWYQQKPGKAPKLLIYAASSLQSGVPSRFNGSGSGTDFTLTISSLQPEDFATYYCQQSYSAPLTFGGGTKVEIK | 55

Q: GET /values?readout=VEGF-E-mediated Survival % Inhibition (Average)&item= 24B3 (antibody, V domains shown, Fully human mAb from XenoMouse hybridoma, tested as hybridoma supernatant) VH: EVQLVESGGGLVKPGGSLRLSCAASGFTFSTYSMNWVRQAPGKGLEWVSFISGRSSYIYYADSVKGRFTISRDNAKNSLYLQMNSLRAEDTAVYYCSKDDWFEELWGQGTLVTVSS VL: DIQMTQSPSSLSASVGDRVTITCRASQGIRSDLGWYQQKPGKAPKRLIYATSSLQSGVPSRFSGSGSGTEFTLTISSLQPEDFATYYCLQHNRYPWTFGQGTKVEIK
A: 66
